B1: library; a variant is named by its letters at N, in order (parent)
chain: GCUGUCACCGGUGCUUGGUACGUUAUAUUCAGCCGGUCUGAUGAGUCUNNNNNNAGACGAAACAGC

- Variants of: B1
- Assay text: normalized RNA/DNA level without ligand (relative to sTRSVctl = 100) (log10 (% of sTRSVctl)); HEK293T overexpressing SLC46A1; higher = less ribozyme self-cleavage, higher mRNA level
- Measurement parameters: without (6R,S)-folinic acid; ligand present: no
Value kind: normalized RNA/DNA level without ligand (log10)

>  <Sequence change>
CCUCCA

>  <Experimental result>
2.02

$$$$
>  <Sequence change>
GCCGUA

>  <Experimental result>
2

$$$$
>  <Sequence change>
GACGAC

>  <Experimental result>
1.96

$$$$
>  <Sequence change>
CAGCCA

>  <Experimental result>
1.98

$$$$
>  <Sequence change>
UACUCG

>  <Experimental result>
1.84

$$$$
>  <Sequence change>
UUACCC

>  <Experimental result>
2.02

$$$$
>  <Sequence change>
UUAAUA

>  <Experimental result>
2.01

$$$$
>  <Sequence change>
CUACAC

>  <Experimental result>
2.05

$$$$
>  <Sequence change>
GUUUCG

>  <Experimental result>
1.99

$$$$
>  <Sequence change>
CGCGCC

>  <Experimental result>
2.1

$$$$
>  <Sequence change>
GUGUAU

>  <Experimental result>
1.96

$$$$
>  <Sequence change>
UGUCAU

>  <Experimental result>
1.96

$$$$
>  <Sequence change>
UUUGAC

>  <Experimental result>
2.01

$$$$
>  <Sequence change>
UAGUAG

>  <Experimental result>
1.68

$$$$
>  <Sequence change>
AUAAGC

>  <Experimental result>
2

$$$$
>  <Sequence change>
CCAUGA

>  <Experimental result>
1.98

$$$$
>  <Sequence change>
CCUCUC

>  <Experimental result>
2.07

$$$$
>  <Sequence change>
AGUGUC

>  <Experimental result>
2.05

$$$$
>  <Sequence change>
UGCCAA

>  <Experimental result>
1.96

$$$$
>  <Sequence change>
AGCGGA

>  <Experimental result>
2.02

$$$$
>  <Sequence change>
AGUUUC

>  <Experimental result>
2.02

$$$$
>  <Sequence change>
CAGCUG

>  <Experimental result>
2.07

$$$$
>  <Sequence change>
UUAACC

>  <Experimental result>
2.02

$$$$
>  <Sequence change>
GGCAGU

>  <Experimental result>
2.06

$$$$
>  <Sequence change>
UGCCCG

>  <Experimental result>
1.95

$$$$
>  <Sequence change>
AACCGG

>  <Experimental result>
2.03

$$$$
>  <Sequence change>
AGUAUA

>  <Experimental result>
1.98

$$$$
>  <Sequence change>
GUAUCU

>  <Experimental result>
2.03

$$$$
>  <Sequence change>
UUAAGG

>  <Experimental result>
1.86

$$$$
>  <Sequence change>
GCGACA

>  <Experimental result>
2.02

$$$$
>  <Sequence change>
AGGAGU

>  <Experimental result>
1.93

$$$$
>  <Sequence change>
ACUAGA

>  <Experimental result>
1.97

$$$$
>  <Sequence change>
CCAUUC

>  <Experimental result>
2.04

$$$$
>  <Sequence change>
UGUUUA

>  <Experimental result>
1.98

$$$$
>  <Sequence change>
AUCCCG

>  <Experimental result>
2.01

$$$$
>  <Sequence change>
AACGCG

>  <Experimental result>
1.91

$$$$
>  <Sequence change>
CGGGCC

>  <Experimental result>
2.07

$$$$
>  <Sequence change>
GCGGGC

>  <Experimental result>
1.95

$$$$
>  <Sequence change>
AUUCUC

>  <Experimental result>
2.07

$$$$
>  <Sequence change>
UACCGG

>  <Experimental result>
1.98

$$$$
>  <Sequence change>
CCUUGC

>  <Experimental result>
2

$$$$
>  <Sequence change>
ACAAGG

>  <Experimental result>
1.91

$$$$
>  <Sequence change>
GCGUCC

>  <Experimental result>
2.01

$$$$
>  <Sequence change>
GCGGAU

>  <Experimental result>
2.02

$$$$
>  <Sequence change>
UAGAAG

>  <Experimental result>
1.65

$$$$
>  <Sequence change>
UUCUCU

>  <Experimental result>
2.06

$$$$

Hello, the source for this data is the supplement of paper PMC6757056, in case you need it.
